- MEASUREMENT_TARGET: Cbl-B (Homo sapiens)
- Construct: MSD-Based Assay for Degradation of Cbl-B in THP-1 Cells; endogenous in cells; host or cells: THP-1 (title) / Jurkat (protocol text)
- Sequence (Q13191 whole entry): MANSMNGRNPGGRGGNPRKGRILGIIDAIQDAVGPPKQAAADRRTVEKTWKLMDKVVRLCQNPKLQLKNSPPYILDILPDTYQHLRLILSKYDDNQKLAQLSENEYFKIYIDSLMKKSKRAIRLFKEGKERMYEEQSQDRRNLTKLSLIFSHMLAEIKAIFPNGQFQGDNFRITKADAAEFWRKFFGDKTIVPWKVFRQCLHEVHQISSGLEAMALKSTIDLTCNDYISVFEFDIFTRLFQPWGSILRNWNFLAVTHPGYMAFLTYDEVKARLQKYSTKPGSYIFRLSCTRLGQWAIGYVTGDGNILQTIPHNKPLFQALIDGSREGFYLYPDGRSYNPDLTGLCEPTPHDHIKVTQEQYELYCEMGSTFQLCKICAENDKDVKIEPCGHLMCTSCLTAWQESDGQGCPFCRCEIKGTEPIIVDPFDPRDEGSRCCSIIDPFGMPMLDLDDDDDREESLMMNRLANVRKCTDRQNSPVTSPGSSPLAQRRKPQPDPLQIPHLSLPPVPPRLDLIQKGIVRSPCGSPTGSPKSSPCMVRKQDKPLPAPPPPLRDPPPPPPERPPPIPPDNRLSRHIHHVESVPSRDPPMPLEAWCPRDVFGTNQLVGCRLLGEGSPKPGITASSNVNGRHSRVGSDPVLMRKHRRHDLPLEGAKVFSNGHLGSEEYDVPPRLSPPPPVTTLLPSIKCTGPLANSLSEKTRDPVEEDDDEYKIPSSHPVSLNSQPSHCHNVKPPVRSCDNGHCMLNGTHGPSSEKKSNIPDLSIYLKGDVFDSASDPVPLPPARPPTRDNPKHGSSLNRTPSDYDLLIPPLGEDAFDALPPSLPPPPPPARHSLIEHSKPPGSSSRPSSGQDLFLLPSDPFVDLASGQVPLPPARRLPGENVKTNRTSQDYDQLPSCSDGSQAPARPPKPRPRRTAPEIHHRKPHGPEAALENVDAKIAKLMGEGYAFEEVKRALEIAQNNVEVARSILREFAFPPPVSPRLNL
- EXPERIMENT_DESCRIPTION: MSD-based assay for degradation of Cbl-B in THP-1 cells
- Format: cell-based
- PROTOCOL_CONDITIONS: Cbl-B degradation, Jurkat cells seeded (heading: THP-1 cells), 24 hours incubation, MSD readout
Here the recorded DC50 is given for each entry.

Worked cases, DC50 given:
CN(CCO[C@H]1CCCN(Cc2cc(C(F)(F)F)c3cn(-c4cccc([C@H](c5nncn5C)C5CCC5)c4)c(=O)n3c2)C1)C(=O)c1ccc(N2CCN(c3ccc4c(c3)CN([C@@H]3CCC(=O)NC3=O)C4=O)CC2)cc1 (single isomer, unassigned) [Compound 105] :: 30 to 300 nM
Cn1cnnc1[C@@H](c1cccc(-n2cc3c(C(F)(F)F)cc(CN4CCN(c5ccc(C(=O)N6CCC(C7CCN(c8ccc9c(c8)CN([C@H]8CCC(=O)NC8=O)C9=O)CC7)CC6)cc5)CC4)cn3c2=O)c1)C1CCC1 (single isomer, unassigned) [Compound 210] :: < 30 nM
Cn1cnnc1[C@@H](c1cccc(-n2cc3c(C(F)(F)F)cc(CN4CCC(CC(=O)N5CCC(c6ccc(-c7ccc8c(c7)CN([C@@H]7CCC(=O)NC7=O)C8=O)cc6)CC5)CC4)cn3c2=O)c1)C1CCC1 [Compound 181] :: 300 to 1000 nM
Cn1cnnc1CC1(c2cccc(-n3cc4c(C(F)(F)F)cc(CN5CCC(OCc6ccc(C(=O)N7CCN(c8ccc9c(c8)CN([C@H]8CCC(=O)NC8=O)C9=O)CC7)cc6)CC5)cn4c3=O)c2)COC1 (single isomer, unassigned) [Compound 244] :: < 30 nM
Cn1cnnc1[C@@H](c1cccc(-n2cc3c(C(F)(F)F)cc(CN4CCC[C@H](OCCOCc5ccc(COCCNc6cccc7c6C(=O)N(C6CCC(=O)NC6=O)C7=O)cc5)CC4)cn3c2=O)c1)C1CCC1 (stereo partly drawn) [Compound 32] :: 30 to 300 nM

Given the molecule Cn1cnnc1CC1(c2cccc(-n3cc4c(C(F)(F)F)cc(CN5CCN(CCc6ccc(N7CCN(c8ccc9c(c8)CN([C@@H]8CCC(=O)NC8=O)C9=O)CC7)cc6)CC5)cn4c3=O)c2)COC1 [Compound 203] , what is its reported DC50?
< 30 nM

Given the molecule Cn1cnnc1[C@@H](c1cccc(-n2cc3c(C(F)(F)F)cc(CN4CCC(CC(=O)N5CCC(CC6CCN(c7ccc8c(c7)CN([C@@H]7CCC(=O)NC7=O)C8=O)CC6)CC5)CC4)cn3c2=O)c1)C1CCC1 [Compound 175] , what is its reported DC50?
> 10000 nM

Given the molecule Cn1cnnc1CC1(c2cccc(-n3cc4c(C(F)(F)F)cc(CN5CCC(CCN6CCC(CC7CCN(c8ccc9c(c8)CN([C@@H]8CCC(=O)NC8=O)C9=O)CC7)CC6)CC5)cn4c3=O)c2)COC1 (single isomer, unassigned) [Compound 259] , what is its reported DC50?
30 to 300 nM

Given the molecule Cn1cnnc1[C@@H](c1cccc(-n2cc3c(C(F)(F)F)cc(CN4CCC(OCc5cccc(CN6CCN(c7ccc8c(c7)CN([C@@H]7CCC(=O)NC7=O)C8=O)CC6)c5)CC4)cn3c2=O)c1)C1CCC1 (single isomer, unassigned) [Compound 207] , what is its reported DC50?
> 10000 nM
